test: Effect of arylcarboxylic acid on solubility of pyridonecarboxylic acid - 3 (Table 3); type: physicochemical; conditions: 0.1% aqueous sodium dihydrogenphosphate, pH 8, pranoprofen added, pH 8, 0.1% aqueous sodium dihydrogenphosphate, 25° C., one week
readout: solubility thermodynamic at 168 h

GET /values?readout=solubility thermodynamic at 168 h&item= CCn1cc(C(=O)O)c(=O)c2cc(F)c(N3CCNC(C)C3)c(F)c21 (stereo not shown) 2140 µg/mL

###

Experiment: Effect of arylcarboxylic acid on solubility of pyridonecarboxylic acid - 1 (Table 1)
Format: physicochemical
Details: 0.1% aqueous sodium dihydrogenphosphate, pH 8, bromfenac added, pH 8, 0.1% aqueous sodium dihydrogenphosphate, 25° C., one week
Experimental: Experimental Example 1: Effect of arylcarboxylic acid on solubility of pyridonecarboxylic acid - 1 To a 0.1% aqueous sodium dihydrogenphosphate solution (100 ml) containing pranoprofen, ibuprofen or bromfenac was added norfloxacin or enoxacin in excess, and the pH thereof was adjusted to 7-8 with hydrochloric acid or sodium hydroxide. […]
readout: solubility thermodynamic at 168 h (µg/mL)
Numbers only; they are read as µg/mL.

[[record]]
compound = "CCn1cc(C(=O)O)c(=O)c2cc(F)c(N3CCNCC3)nc21 [enoxacin]"
readout = "solubility thermodynamic at 168 h"
valueobserved = 350


Next, consider the following compound.
GET /values?readout=solubility thermodynamic at 168 h&item= CCn1cc(C(=O)O)c(=O)c2cc(F)c(N3CCNCC3)cc21 [norfloxacin] 540

###

assay: Effect of arylcarboxylic acid on solubility of pyridonecarboxylic acid - 3 (Table 3); type: physicochemical; conditions: 0.1% aqueous sodium dihydrogenphosphate, pH 8, 2-naphthylacetic acid added, pH 8, 0.1% aqueous sodium dihydrogenphosphate, 25° C., one week
readout: solubility thermodynamic at 168 h (µg/mL)
Numbers only; they are read as µg/mL.

GET /values?readout=solubility thermodynamic at 168 h&item= CCn1cc(C(=O)O)c(=O)c2cc(F)c(N3CCNC(C)C3)c(F)c21 (stereo not shown) 1800

###

Listed here: items and their measured solubility thermodynamic at 168 h.
experiment: Effect of arylcarboxylic acid on solubility of pyridonecarboxylic acid - 1 (Table 1); assay type: physicochemical; settings: 0.1% aqueous sodium dihydrogenphosphate, pH 7, bromfenac added, pH 7, 0.1% aqueous sodium dihydrogenphosphate, 25° C., one week
Numbers only; they are read as µg/mL.

[[record]]
molecule = "CCn1cc(C(=O)O)c(=O)c2cc(F)c(N3CCNCC3)cc21 [norfloxacin]"
readout = "solubility thermodynamic at 168 h"
valueobserved = 410


Next, consider the following molecule.
GET /values?readout=solubility thermodynamic at 168 h&item= CCn1cc(C(=O)O)c(=O)c2cc(F)c(N3CCNCC3)nc21 [enoxacin] 320

###

test: Effect of arylcarboxylic acid on solubility of pyridonecarboxylic acid - 1 (Table 1); assay type: physicochemical; settings: 0.1% aqueous sodium dihydrogenphosphate, pH 7, ibuprofen added, pH 7, 0.1% aqueous sodium dihydrogenphosphate, 25° C., one week
Listed here: items and their measured solubility thermodynamic at 168 h.
Numbers only; they are read as mg/mL.

[[record]]
cpdsmiles = "CCn1cc(C(=O)O)c(=O)c2cc(F)c(N3CCNCC3)nc21"
valueobserved = 0.3


GET /values?readout=solubility thermodynamic at 168 h&item= CCn1cc(C(=O)O)c(=O)c2cc(F)c(N3CCNCC3)cc21 0.43

###

assay: physchem; details: 0.1% phosphate buffer, pH 7
readout: solubility (µg/mL)
Numbers only; they are read as µg/mL.

GET /values?readout=solubility&item= CCn1cc(C(=O)O)c(=O)c2cc(F)c(N3CCNCC3)nc21 280
